Below, each of the compounds is paired with its reported TGI value.
- Tested on: M14 melanoma
- assay_details: NCI tumour cell line growth inhibition, 48 h
measurement_type: TGI

1. COc1cccc2c1C(=O)c1c(O)c3c(c(O)c1C2=O)C[C@@](O)(C(C)=O)CC3S(=O)(=O)O (stereo partly specified) ... > 100 µM
2. COC(=O)C1CSC(c2csc(CCN)n2)=N1 (stereo unspecified) ... > 100 µM
3. O=C(Cn1c(C(=O)c2ccc(Cl)cc2)nc(-c2ccc(Cl)cc2)c1-c1ccc(Cl)cc1)c1ccccc1 ... > 100 µM
4. CC1=NN(C(=O)Cc2ccccc2)C(=O)/C1=C\c1ccc([N+](=O)[O-])cc1 ... > 100 µM
5. O=C1/C(=C/c2ccc(Cl)cc2)Oc2cc(O)ccc21 ... > 100 µM
6. Cc1cc(Cl)nc2ccc(Cc3ccc4nc(Cl)cc(C)c4c3)cc12 ... > 100 µM
7. O=C(COc1ccccc1Cl)N1N=C(c2ccccc2)CC1(O)c1ccccc1 (stereo unspecified) ... 31.9 µM
8. CC1CCC2C(C)C(=O)OC3OC4(C)CCC1C32OO4 (stereo unspecified) ... > 100 µM
9. COc1cc(C2S/C(=C/c3ccccc3)C(=O)N2Cc2ccccc2)cc(OC)c1OC (stereo unspecified) ... > 100 µM
10. CC(C)OP(=S)(NC(=S)c1ccccc1)OC(C)C ... > 100 µM
11. CNS(=O)(=O)OCC1OC(n2cnc3cncnc32)C(O)C1O (stereo unspecified) ... > 100 µM
12. O=c1cc(-c2ccccc2)[nH]c2ncccc12 ... > 100 µM
13. [O-]/N=[N+](/[O-])C1CCCCC1=[N+]1CCOCC1 (stereo unspecified) ... > 100 µM
14. CCN1CCC(CC(=O)Nc2n[nH]c3nnc(-c4cccc(F)c4F)cc23)CC1 ... > 25 µM
15. COc1cccc2c1NC(=O)Cc1c-2[nH]c2ccccc12 ... > 100 µM
16. CC(=O)C1=C(C)O[C@@H]2O[C@H](COCc3ccccc3)[C@@H](OCc3ccccc3)[C@H](O)[C@@H]2S1 ... 39.8 µM
17. CN(C)C1CCN(Cc2ccc(NC(=O)c3cncc(C#Cc4cnc(N)c5ncccc45)c3)cc2C(F)(F)F)CC1 ... 1.87 µM
18. COc1ccc2c(c1)Oc1cc(O)ccc1[C@H]2c1ccccc1C(=O)NC(C)c1ccccc1 (stereo partly specified) ... 26.1 µM
19. Clc1ccc(CCNC2(c3cc4ccccc4s3)CCCCC2)cc1Cl ... > 100 µM
20. Cn1c2ccc(F)cc2c2ccc3c(c21)C(=O)C=CC3=O ... 27.3 µM
21. COC(C/C(=C/CO[Si](C(C)C)(C(C)C)C(C)C)C(=O)N(C(=O)OC(C)(C)C)c1ccccc1I)OC ... > 100 µM

---

Below, each of the compounds is paired with its reported TGI value.
- System: OVCAR-5 ovarian
- assay_details: NCI tumour cell line growth inhibition, 48 h
measurement_type: TGI

1. CN(C)CCNC(=O)c1cccc2ccc(-c3ccc(Br)cc3)nc12 ... 10.2 µM
2. COc1cc(-c2cc3ncccc3c3nc(OCCN(C)C)c4cccnc4c23)cc(OC)c1OC ... 3.68 µM
3. Cc1ccc(/C=C/C(=O)Oc2ccc(/C=C3\CCC/C(=C\c4ccc(OC(=O)/C=C/c5ccc(C)cc5)cc4)C3=O)cc2)cc1 ... > 100 µM
4. O=C1c2cc(I)ccc2N2CCN=C2N1Cc1ccccc1 ... > 100 µM
5. O=C1C(=c2ccc(=C3C(=O)c4ccc([N+](=O)[O-])cc4[N+]3=O)cc2)N([O-])c2cc([N+](=O)[O-])ccc21 ... > 100 µM
6. Cn1cnc(N2CCCC2)c(C#N)c1=S ... > 100 µM

---

Below, each of the compounds is paired with its reported TGI value.
- System: OVCAR-5 ovarian
- assay_details: NCI tumour cell line growth inhibition, 48 h
measurement_type: TGI (µM)

1. CCCCCCC1N=C(N)N=C(N)N1c1cccc(Cl)c1 (stereo unspecified) ... 23.1
2. OCc1ccc(-c2csc(-c3ccc(CO)o3)c2)o1 ... 1.52
3. CN(C)C1CCN(Cc2ccc(NC(=O)c3cncc(C#Cc4cnc(N)c5ncccc45)c3)cc2C(F)(F)F)CC1 ... 15.6
4. CC(C)=CC1C(C(=O)Oc2ccccc2C(C)C)C1(C)C (stereo unspecified) ... 48.8

---

- System: HCT-116 colon
- assay_details: NCI tumour cell line growth inhibition, 48 h; in the data active means GI50 below about 0.43 µM; inactive means the rest
Classes used: True = active, False = inactive

1) CNS(=O)(=O)OCC1OC(n2cnc3cncnc32)C(O)C1O (stereo not given) ... False
2) Cn1cc(C2=C(c3c4n(c5ccccc35)CCNC4)C(=O)NC2=O)c2ccccc21 ... False
3) C[C@H](c1ccc(F)cc1CCCC(=O)O)N(c1cc(F)ccc1F)S(=O)(=O)c1ccc(Cl)cc1 ... False
4) Cc1ccc([P+](Cc2ccccc2)(c2ccccc2)c2ccccc2)cc1 ... False
5) COC1=CC(c2ccc[nH]2)=N/C1=C\c1[nH]c(C)c(C(=O)CCC(=O)Oc2ccc3c(c2)CCC2C3CC[C@]3(C)[C@@H](O)CC[C@@H]23)c1C (stereo not given in full) ... False
6) COC(=O)c1cc(NC(=O)c2cc(NC(=O)c3cc([N+](=O)[O-])n(C)c3)cn2C)cn1C ... False
7) Cc1ccc(-c2nc3nc(-c4ccc(F)cc4)nc(N4CCNCC4)c3o2)cc1 ... False
8) CN1CC=C(c2cc(NC(=O)Nc3ccc(Oc4ccnc(NC(=O)C5CC5)c4)c(F)c3)cc(C(F)(F)F)c2)CC1 ... True
9) O=C(Cn1c(C(=O)c2ccc(Cl)cc2)nc(-c2ccc(Cl)cc2)c1-c1ccc(Cl)cc1)c1ccccc1 ... False
10) CN1CCN(C(=O)[C@@]2(C)CC[C@]3(C)CC[C@]4(C)C(=CC[C@@H]5[C@@]6(C)CCC(=O)NC(C)(C)[C@@H]6CC[C@]54C)[C@@H]3C2)CC1 ... False

---

- Test system: A549 NSCLC
- assay_details: NCI tumour cell line growth inhibition, 48 h
Below, each of the compounds is paired with its reported TGI value.
measurement_type: TGI

1. COC(=O)c1c(O)ccc2c1c1cc3ccccc3cc1n2Cc1cc(OC)cc(OC)c1 ... > 100 µM
2. CNC(=O)c1nn(C)c2c1C(C)(C)Cc1cnc(Nc3cccc(N4CCN(C)CC4)c3)nc1-2 ... 13.8 µM
3. O=C(NC(=S)Nc1ccc([N+](=O)[O-])cc1)c1ccc2c(c1)Sc1ccccc1O2 ... > 100 µM
4. Cc1ccc(S(=O)(=O)N2CCC[C@@H]2C(=O)O[C@@H]2CCC3CC=CC32)cc1 (some centres not stated) ... > 100 µM
5. Fc1cc(F)c(F)c(S)c1F ... > 100 µM
6. COC(=O)CN(CC(=O)NCCCBr)C1CCCCC1N(CC(=O)OC)CC(=O)OC (configuration not stated) ... > 100 µM
7. COc1ccccc1NC(=S)N=Nc1c(O)[nH]c2ccccc12 ... > 100 µM
8. CN(C)CCNC(=O)c1cccc2ccc(-c3ccc(Br)cc3)nc12 ... 4.29 µM
9. C/C=C1/CN2CCC34c5ccccc5N(C)C23C2CC1C4(C(=O)OC)C(OC(C)=O)O2 (configuration not stated) ... > 100 µM
10. CN(C)Cc1c(O)ccc2c1c1c(n2C)C(=O)c2ccccc2C1=O ... > 100 µM
11. CCC12CCCN(Cc3ccccc3)C1c1c(n(C)c3ccccc13)C(CO)C2 (configuration not stated) ... > 257 µM
12. CN(C)C(=O)Oc1c(Br)cc(Br)cc1C(=O)OCc1ccccc1 ... > 100 µM
13. O=C1/C(=C/c2ccc([N+](=O)[O-])s2)Oc2cc(Cl)ccc21 ... > 100 µM
14. CN1C(=O)CC2(C)c3cc(O)cc(Br)c3N(C)C12 (configuration not stated) ... > 100 µM
15. Cc1cc2nc3c(C#N)c4c(c(Nc5ccc(F)cc5)n3c2cc1C)CCC4 ... > 100 µM
16. CC(C)OP(=S)(NC(=S)c1ccccc1)OC(C)C ... > 100 µM
17. O=C1/C(=C/c2ccc(O)cc2)CCCC1CN1CCCCC1 (configuration not stated) ... 31.9 µM
18. N[C@H]1c2c(Br)sc(Br)c2C(=O)[C@H]1O ... 70.1 µM
19. COC(=O)Oc1nn(C(=O)OC)c(=O)c2ccccc12 ... > 100 µM
20. CCc1cc(C)cc2[n+]1CC=C2 ... 78.6 µM
21. Cc1ccc(-c2nc3nc(-c4ccc(F)cc4)nc(N4CCNCC4)c3o2)cc1 ... 4.74 µM
22. COc1cccc2c1C(=O)c1c(O)c3c(c(O)c1C2=O)C[C@@](O)(C(C)=O)CC3S(=O)(=O)O (some centres not stated) ... > 100 µM
23. CSc1cc(Cl)c(C)cc1S(=O)(=O)NC(=O)NNc1ccc(F)cc1 ... > 100 µM
24. Cc1ccccc1C1=C(c2cn(C)c3ccccc23)C(=O)NC1=O ... > 25 µM
25. CCC(=O)Nc1cccc(N=Cc2ccc(OC(=O)/C=C\c3ccccc3)cc2)c1 ... > 75 µM
26. Cc1cc(=O)oc2cc(OCCCOc3ccc4c(C)cc(=O)oc4c3)ccc12 ... > 100 µM
27. O=C1c2cc(I)ccc2N2CCN=C2N1Cc1ccccc1 ... > 100 µM
28. CCc1ccccc1NC(=O)C(=O)C(C#N)c1ccccc1Cl (configuration not stated) ... > 100 µM
29. CC(=O)OCC1OC(n2cnc3nc(Br)[nH]c(=O)c32)C(OC(C)=O)C1OC(C)=O (configuration not stated) ... > 100 µM
30. CC1CCCC(C(=O)CC2CC(=O)NC(=O)C2)C1=O (configuration not stated) ... > 100 µM
31. CC(=O)O[C@H]1C(=O)[C@@]2(C)[C@H]([C@H](OC(=O)c3ccccc3)[C@]3(O)C[C@H](OC(=O)[C@H](O)[C@@H](NC(=O)c4ccccc4)c4ccc5ccccc5c4)C(C)=C1C3(C)C)[C@]1(OC(C)=O)CO[C@@H]1C[C@@H]2O ... > 42.1 µM
32. CC(=O)c1ccccc1NC(=O)C(=O)C(C(=O)c1ccc2ccccc2c1)C1OC(=O)c2ccccc21 (configuration not stated) ... 70.5 µM
33. N#CC1C[C@@H]2CC3(CCC2CN1C(=O)c1ccccc1)OCCO3 (some centres not stated) ... > 100 µM
34. N#Cc1c(NCc2ccccc2)nc(NCc2ccccc2)c(C#N)c1-c1ccc(Cl)cc1 ... > 100 µM
35. COc1ccc(Nc2nc3cc(C(F)(F)F)ccc3nc2-c2ccccc2)cc1OC ... > 100 µM
36. Cc1cc(Cl)nc2ccc(Cc3ccc4nc(Cl)cc(C)c4c3)cc12 ... > 100 µM
37. COc1cccc2c1NC(=O)Cc1c-2[nH]c2ccccc12 ... > 100 µM
38. O=Cc1cccc2ccc3ccccc3c12 ... 85.3 µM
39. N#CCCN(CCC#N)c1ccc(/C=C(/NC(=O)c2cc([N+](=O)[O-])ccc2Cl)C(=O)NN)cc1 ... > 100 µM
40. OCc1ccc(-c2csc(-c3ccc(CO)o3)c2)o1 ... 64.9 µM
41. CCCCCCCCCCNCCSSCc1ccc(Cl)cc1 ... 3.59 µM
42. COC(=O)CNC(=O)C(Cc1ccccc1)NC(=O)c1ccc(-c2ccc(Cl)cc2Cl)o1 (configuration not stated) ... > 100 µM
